- Tested on: L-type calcium channel
- protocol.notes: L-type calcium channel activity well-plate assay (IMR-32 cells, Ca-4 dye, FlexStation)
- Format: cell-based, human
- condition: 1 μM test cmpd
Response key: Condition met means CaL Plate Assay % blk (1 μM test cmpd) >= 9%; Condition not met means CaL Plate Assay % blk (1 μM test cmpd) < 9%.

These recorded examples may help you get a feel for the data.
CCOC(=O)C1=C(C)NC(C)=C(C(=O)OCC)C1c1ccc2c(c1)OCCO2	Condition not met
CC1=C(C(=O)OCc2ccccc2)C(c2cccc3ccccc23)n2nnnc2N1C (centres unmarked)	Condition not met
CC1=C(C(=O)N2CCC(c3ccc(C(=O)O)cc3)CC2)C(c2cccc3ccccc23)C2=C(CCCC2=O)N1 (centres unmarked)	Condition not met
CCOC(=O)C1=C(C)N(C)C(C)=C(C(=O)OCC)C1c1cccc2ccccc12	Condition met
CCOC(=O)C1=C(C)NC(C)=C(C(=O)OCC)C1c1ccc(CC)o1	Condition met
CCOC(=O)C1=C(C)NC(C)=C(C(=O)OCC)C1c1ccc(CC)s1	Condition met
CC1=C(C(=O)OCc2ccccc2)C(c2cccs2)n2nnnc2N1 (centres unmarked)	Condition not met
CCOC(=O)C1=C(C)NC(C)=C(C(=O)OCC)C1c1csc2ccccc12	Condition met
CC1=C(C(=O)OCc2ccccc2)C(c2cc3ccccc3o2)n2nnnc2N1 (centres unmarked)	Condition not met
CC1=C(C(=O)OCc2ccccc2)C(c2cccc3ccccc23)n2nnnc2N1 (centres unmarked)	Condition not met

-- ask Decide: CaL Plate Assay % blk (1 μM test cmpd) of CCOC(=O)C1=C(C)NC(C)=C(C(=O)OCC)C1c1sc2ccccc2c1C >= 9%?
-- reply Condition not met

-- ask Decide: CaL Plate Assay % blk (1 μM test cmpd) of N#CC1=C(N)NC2=C(C(=O)CCC2)C1c1ccc(Br)cc1 (centres unmarked) >= 9%?
-- reply Condition not met

-- ask Decide: CaL Plate Assay % blk (1 μM test cmpd) of CCCC1=C(C(=O)OCC)C(c2ccsc2)C2=C(CC(c3ccccc3)CC2=O)N1 (centres unmarked) >= 9%?
-- reply Condition not met

-- ask Decide: CaL Plate Assay % blk (1 μM test cmpd) of CC1=C(C(=O)OC2CCc3ccccc32)C(c2cccc3ccccc23)n2nnnc2N1 (centres unmarked) >= 9%?
-- reply Condition met

-- ask Decide: CaL Plate Assay % blk (1 μM test cmpd) of N#CC1=C(N)OC2=C(C(=O)CC(c3ccccc3)C2)C1c1cccs1 (centres unmarked) >= 9%?
-- reply Condition not met

-- ask Decide: CaL Plate Assay % blk (1 μM test cmpd) of CCOC(=O)C1=C(C)NC2=C(C(=O)CCC2)C1c1ccc(C)c2ccccc12 (centres unmarked) >= 9%?
-- reply Condition met

-- ask Decide: CaL Plate Assay % blk (1 μM test cmpd) of CC1=C(C(=O)NCCCCc2ccccc2)C(c2ccsc2)C2=C(CCCC2=O)N1 (centres unmarked) >= 9%?
-- reply Condition met

-- ask Decide: CaL Plate Assay % blk (1 μM test cmpd) of CCOC(=O)C1=C(C)NC(C)=C(C(=O)OCC)C1c1cc2ccccc2s1 >= 9%?
-- reply Condition not met

-- ask Decide: CaL Plate Assay % blk (1 μM test cmpd) of CC1=C(C(=O)N2CCN(c3ccccc3)CC2)C(c2ccc3ccccc3c2)C2=C(CCCC2=O)N1 (centres unmarked) >= 9%?
-- reply Condition not met

-- ask Decide: CaL Plate Assay % blk (1 μM test cmpd) of N#CC1=C(N)OC2=C(C(=O)CC(c3ccccc3)C2)C1c1ccsc1 (centres unmarked) >= 9%?
-- reply Condition not met
